- Procedure details: Cmax in 12 hrs fasted C57BL/6 mouse at 0.1 mg/kg, iv measured upto 24 hrs by LC-MS/MS analysis
- Format: ADME, organism-based
- Design: time < 24 hrs, dose 0.1 mg/kg, route iv
- Measurement context: in vivo
Assay metric: Cmax (ng/mL)
Give the number; ng/mL is assumed, so skip it.

-- ask Identify Cmax associated with the compound O=C(Nc1ccc2[nH]ncc2c1)N1CCN(c2cccc(Cl)c2Cl)CC1
-- reply 61

---

- Procedure details: Half-life in 12 hrs fasted C57BL/6 mouse at 1 mg/kg, po measured upto 24 hrs by LC-MS/MS analysis
- Type: ADME, organism-based
- Measurement context: in vivo
Assay metric: half-life (h)
Give the number; h is assumed, so skip it.

-- ask Identify half-life associated with the compound O=C(Nc1ccc2[nH]ncc2c1)N1CCN(c2cccc(Cl)c2Cl)CC1
-- reply 4.1
